Test system: SKOV-3 human ovarian cancer cells
Assay: CellTiter-Glo luminescent cell viability assay, SKOV-3 ovarian cancer cells
Assay type: cell-based
Details: SK-OV-3, SKOV-3 cells, 72 hours
pIC50: −log10 of the molar value.
experimental-endpoint: pIC50

// query Item CC(CN1c2ccccc2Sc2ccccc21)N(C)C (stereo not shown) has what recorded pIC50?
// result ≤ 4.00

====

System: NCI-H2141 lung cancer cells
Experiment: CellTiter-Glo luminescent cell viability assay, NCI-H2141 lung cancer cells
Type: cell-based
Settings: FIG. 4, lung cancer (NCI-H2141), 72 hours
experimental-endpoint: pEC50
pEC50 is a log-scale quantity: -log10 of the concentration expressed in molar.

// query Item CC(CN1c2ccccc2Sc2ccccc21)N(C)C (stereo not shown) [promethazine] has what recorded pEC50?
// result 4.47

====

Tested on: HUH-7 liver cancer cells
Assay: CellTiter-Glo luminescent cell viability assay, HUH-7 liver cancer cells
Assay type: cell-based
Conditions: Homo sapiens, FIG. 2, liver cancer (HUH-7), 72 hours
experimental-endpoint: pEC50
pEC50 is a log-scale quantity: -log10 of the concentration expressed in molar.

// query Item CC(CN1c2ccccc2Sc2ccccc21)N(C)C (stereo not shown) has what recorded pEC50?
// result 4.38

Hey, just so you know, these numbers are from patent US11197865B2.
